FYI, the data here is from patent US11384078B2.

Provide the reported EC50 of each item.
system: Trypanosoma cruzi amastigotes cultured in 3T3 fibroblast cells; test: Assay for growth inhibition of kinetoplastid parasite Trypanosoma cruzi (beta-galactosidase Tulahuen strain, CPRG readout); assay type: cell-based; details: Trypanosoma cruzi, Fibroblast, T. cruzi amastigotes in 3T3 fibroblast cells; read-out: Buckner infectious T. cruzi EC50
Write the value in µM as a bare number.

Determine its reported EC50: COC1CN(c2cnc3nn(-c4cc(NC(=O)N5CC(F)C5)ccc4F)cc3c2)C1
0.015

Determine its reported EC50: O=C(Nc1ccc(Cl)c(-n2cc3cc(N4CC5(CC5)C4)cnc3n2)c1)N1CCC1
0.014

Determine its reported EC50: CCC(C)c1cnc2nn(-c3cc(NC(=O)N4CC(F)C4)ccc3F)cc2c1 (centres unmarked)
0.017

Determine its reported EC50: O=C(Nc1ccc(F)c(-n2cc3cc(N4CCOCC4)cnc3n2)c1)N1CC(F)C1
0.013

Determine its reported EC50: CC(C)Cc1cnc2nn(-c3cc(NC(=O)N4CCC4)ccc3F)cc2c1
0.0016

Determine its reported EC50: O=C(Nc1ccc(F)c(-n2cc3cc(N4CC(C(F)(F)F)C4)cnc3n2)c1)N1CCC1
0.001

Determine its reported EC50: O=C(Nc1ccc(F)c(-n2cc3cc(C4CCC4)cnc3n2)c1)N1CCC1
0.007

Determine its reported EC50: Cc1nc(C)c(C(=O)Nc2ccc(F)c(-n3cc4cc(N5CCC5)cnc4n3)c2)o1
0.018

Determine its reported EC50: CC(C)c1cnc2nn(-c3cc(NC(=O)CC4CCC4)ccc3F)cc2c1
0.435

Determine its reported EC50: O=C(Nc1ccc(F)c(-n2cc3cc(C4CCCCC4)cnc3n2)c1)c1ccco1
0.36

Determine its reported EC50: Cc1ncoc1C(=O)Nc1ccc(F)c(-n2cc3cc(C(C)C)cnc3n2)c1
0.057
